A compilation of IC50 values for Collagenase 3 (Homo sapiens, UniProt P45452) from the published literature.

Known IC50 results, listed for orientation:
COMPOUND	IC50
COCCOC(=O)N1CCN(S(=O)(=O)c2ccc(-c3cccc(F)c3)nc2)[C@@H](C(=O)NO)C1	< 50 nM
CCOC(=O)N1CCN(S(=O)(=O)c2cc(F)c(Oc3ccc(F)cc3)c(F)c2)[C@@H](C(=O)NO)C1	< 50 nM
O=C1COc2ccc(CNC(=O)c3ncc(-c4ccc(F)cc4)c(=O)[nH]3)cc2N1	< 100 nM
O=C1COc2ccc(CNC(=O)c3nc4c(c(=O)[nH]3)C3CCC4CC3)cc2N1	< 100 nM

Now turn to the next compound.
## Input Answer with reported IC50 of CCOC(=O)C1Cc2sc3nc(C(=O)NCc4ccc5c(c4)NC(=O)CO5)[nH]c(=O)c3c2C1 (centres unmarked)
## Output < 100 nM
